// data source = patent US20240059762A1

measured.on: T1, Recombinant SARS-CoV-2 N protein His tagged (SARS-CoV-2, UniProt P0DTC9 1-419)
T1 construct: also called nucleocapsid (N) protein; recombinant HIS tagged SARS-CoV-2 N protein
measurement.protocol: BLI (Octet Red 96E), mAb on anti-mouse Fc biosensor, N protein in solution, global 1:1 fit
property: koff (s⁻¹)
Supply the numeric figure in s⁻¹, leaving out any unit text.

// worked examples, koff included
binder: SCT-Pa02 (antibody, mouse IgG1, kappa, V domains shown) VH: QMQLKQSGPGLVQPSQSLSITCTVSGFSLTSYGVHWVRQSPEKGLEWLGVIWSGGGTDYNAAFISRLSISKDNSKSQVFLKMSSLQTDDTAIYYCARGAYYSLDYWGQGTTLTVSS VL: DIVLTQSPASLAVSLGQRATISCRASESVDYDGDNYMNWYQQKPGQSPKLLIYATSNLESRIPARFSGSGSGTEFTLNIHPVEEEDAATYYCLQSYDVPYTFGSGTKLEMKR
koff (s⁻¹): 0.00073

binder: SCT-Pa07 (antibody, mouse IgG1, kappa, V domains shown) VH: EVQLQQSGPELVKPGDSVKMSCKASGYTFTDYYMDWVKQSHGKSLEWIGYIYTNNGDTNYNQKFKGKATLTVDKSSSTAYMELHSLTSEDSAVYYCASLYYSNFFDSWGQGTTLTVSS VL: ENVLTQSPAIMSATLGEKVTVSCRARSNVKYMYWYQQKSGASPKLLIYYTSNLASGVPARFSGSGSGTSYSLTISSVEAEDAATYYCQQFTSSPFTFGSGTKLEIKR
koff (s⁻¹): 8.63e-05

# next binder below
Find the recorded koff belonging to SCT-Pa01 (antibody, mouse IgG1, kappa, V domains shown) VH: QVTLKESGPGILQPSQTLSLTCSFDGFSLSTFGMGVGWIRQPSGRGLEWLAHIWWDDDKNYKPALKSRLTISKDTSKNQVFLKIANVDTADTATYYCTRMREDSSDYVYYIMDYWGQGTSVIVAS VL: QIVLTQSPSIMSASPGEKVTISCSASSSVSYMYWYQQKPGSSPRPWIYRTSNLASGVPARFSGSGSGTSYSLTITSMEAEDAATYYCQLYHSYPPTWTFGGGTKLEIKR and report it.
8.01e-05
